Where do these numbers come from? They come from PubChem BioAssay (NCI).

- System: NCI-H460 lung
- test.summary: NCI tumour cell line growth inhibition, 48 h

- molecule: "CCCN1C(=O)CN(S(=O)(=O)c2ccc(Cl)cc2)C1=O"
  TGI: "> 100 µM"
- molecule: "O=C1NC(=O)N(S(=O)(=O)c2cc(C(=O)Nc3ccc(Cl)cc3)c(Cl)cc2S)S(=O)(=O)N1"
  TGI: "40.3 µM"
- molecule: "CCN(C(=O)N[C@@H](CC(C)C)C(=O)NCC(=O)OC)c1ccccc1"
  TGI: "> 100 µM"
- molecule: "CN(C)CCNC(=O)c1cccc2c1nc(-c1cccnc1)c1ccccc12"
  TGI: "12.5 µM"
- molecule: "CCc1nc(N)nc(N)c1-c1ccc(N2CCOCC2)c(N=[N+]=[N-])c1"
  TGI: "> 100 µM"
- molecule: "O=c1c(-c2ccccc2)c(SCCCN2CCCCC2)n(-c2ccccc2)c(=S)n1-c1ccccc1"
  TGI: "31.5 µM"
- molecule: "O=C(c1c(F)c(F)c(F)c(F)c1F)n1c(=S)n(C(=O)c2c(F)c(F)c(F)c(F)c2F)c2ccccc21"
  TGI: "> 100 µM"
- molecule: "O=C1/C(=C/c2ccc(Br)s2)NC(=S)N1CN1CCCCC1"
  TGI: "> 100 µM"
- molecule: "Cc1cccc(C)c1NC(=O)C(=O)CC(=O)c1sc(Nc2c(C)cccc2C)nc1C"
  TGI: "> 100 µM"
- molecule: "CCCCCC(=O)OC[n+]1cccc(-c2c(COC(=O)NC(C)C)c(COC(=O)NC(C)C)c3n2CCC3)c1"
  TGI: "> 100 µM"
- molecule: "O=C1c2ccccc2C2(O)N(c3ccccc3)C(=S)N(c3ccccc3)C12O (stereo unspecified)"
  TGI: "> 100 µM"
- molecule: "CN(C)[C@@H]1C(=O)C(C(=O)NCc2nc3[nH]cnc(=S)c3[nH]2)=C(O)[C@@]2(O)C(=O)C3=C(O)c4c(O)cccc4[C@@](C)(O)[C@H]3C[C@@H]12"
  TGI: "> 100 µM"
- molecule: "COc1cc2c3c(n(CCCN)c(=O)c2cc1OC)-c1ccc(N)cc1C3=O"
  TGI: "16.8 µM"
- molecule: "O=[N+]([O-])c1ccc(N/N=C\\c2cc(Br)ccc2O)nc1"
  TGI: "2.72 µM"
- molecule: "O=c1c2sc3ccccc3sc=2c(=O)c2c(Cl)c(Cl)c(Cl)c(Cl)c12"
  TGI: "> 100 µM"
- molecule: "Fc1ccc2c(c1)SC1=Nc3sc4cc(F)ccc4[n+]3CN12"
  TGI: "> 100 µM"
- molecule: "COc1ccc(-n2c(=O)c3ccccc3n(Cc3ccc(C(=O)NO)cc3)c2=O)cc1"
  TGI: "12.9 µM"
- molecule: "N#CC1(CCCCl)CCCCC1"
  TGI: "> 100 µM"
- molecule: "FC(F)(F)c1cccc(CNC2CCN(CCc3ccccc3)CC2)c1"
  TGI: "39.6 µM"
- molecule: "c1ccc(C(NC2=NCCO2)C2CC2)cc1 (stereo unspecified)"
  TGI: "> 100 µM"
- molecule: "COC(=O)c1ccc(CCC2=CC(=O)C=CC2=O)cc1"
  TGI: "35.9 µM"
- molecule: "C/C(=C\\c1ccccc1)C(O)C(=O)c1nc2ccc(Cl)cc2[nH]c1=O (stereo unspecified)"
  TGI: "> 100 µM"
- molecule: "CC(C)(C)C1CC[C@H]2c3c([nH]c4ccccc34)[C@H]3C(=O)N(c4ccc(F)cc4)C(=O)[C@H]3[C@H]2C1 (stereo partly specified)"
  TGI: "26.4 µM"
- molecule: "O=C(NO)c1ccc(CNc2cccc3nc(C4CC4)n(-c4ccccc4)c(=O)c23)cc1"
  TGI: "5.65 µM"
- molecule: "Cc1ccccc1NC(=O)CC(=O)NNCC(=O)Nc1nnc(-c2ccccc2)s1"
  TGI: "> 100 µM"
- molecule: "COc1cc(NC(=O)COc2ccccc2)c(C(N)=O)cc1OC"
  TGI: "> 100 µM"
- molecule: "CN(CC(=O)Nc1ccccc1C(=O)O)c1ccccc1"
  TGI: "> 100 µM"
- molecule: "CN(C)c1ccc(/C=N/N=C(\\C#N)[S][Sn]([Cl])([c]2ccccc2)[c]2ccccc2)cc1"
  TGI: "4.75 µM"
- molecule: "O=C(CC1(O)C(=O)Nc2c(Cl)cc(Cl)cc21)c1cccc([N+](=O)[O-])c1 (stereo unspecified)"
  TGI: "> 100 µM"
- molecule: "CCOC(=O)c1cn(-c2ccc([N+](=O)[O-])cc2)c(=S)n2c1nc1ccccc12"
  TGI: "> 100 µM"
- molecule: "Cc1csc(=Nc2ccccc2)n1CCC(O)(P(=O)(O)O)P(=O)(O)O"
  TGI: "> 100 µM"
- molecule: "CN1CCN(C(=O)/C=C/c2ccc([N+](=O)[O-])o2)CC1"
  TGI: "45.1 µM"
- molecule: "COC(=O)C(C)NP(=O)(OCc1cccc(Cn2cnc3c(N)ncnc32)c1)Oc1ccccc1 (stereo unspecified)"
  TGI: "> 100 µM"
- molecule: "COc1ccc(/C=C2\\C[C@H]3[C@@H]4CC=C5C[C@@H](O)CC[C@]5(C)[C@H]4CC[C@]3(C)\\C2=N\\O)cc1"
  TGI: "> 100 µM"
- molecule: "COc1ccc(NC(=S)c2ccc([N+](=O)[O-])o2)cc1"
  TGI: "5.72 µM"
- molecule: "CNS(=O)(=O)NNS(=O)(=O)c1ccc(C)cc1"
  TGI: "> 100 µM"
- molecule: "O=C(CC1(O)C(=O)Nc2c(Cl)ccc(Cl)c21)c1ccc(Cl)cc1 (stereo unspecified)"
  TGI: "61.9 µM"
- molecule: "O=C(O)c1ccccc1/C=C1\\Cc2cc3c(cc2C1=O)CCC3"
  TGI: "81.9 µM"
- molecule: "N#CC1=C(S)N(C2OC(CO)C(O)C(O)C2O)C(c2ccccc2)=CC1c1ccco1 (stereo unspecified)"
  TGI: "> 100 µM"
- molecule: "Cc1cnc2[nH]c(-c3cccc4ccccc34)cc(=O)c2c1"
  TGI: "> 100 µM"
- molecule: "C(=NC12CC3CC(CC(C3)C1)C2)C1CCCCC1"
  TGI: "> 100 µM"
